target: Neuronal acetylcholine receptor; alpha4/beta2 (Homo sapiens, UniProt P17787+P43681); test: Displacement of [3H]epibatidine from human alpha4beta2 nAChR expressed in HEK293 cell membrane incubated for 3 hrs by scinitillation counting analysis
Sequence (P17787 whole entry): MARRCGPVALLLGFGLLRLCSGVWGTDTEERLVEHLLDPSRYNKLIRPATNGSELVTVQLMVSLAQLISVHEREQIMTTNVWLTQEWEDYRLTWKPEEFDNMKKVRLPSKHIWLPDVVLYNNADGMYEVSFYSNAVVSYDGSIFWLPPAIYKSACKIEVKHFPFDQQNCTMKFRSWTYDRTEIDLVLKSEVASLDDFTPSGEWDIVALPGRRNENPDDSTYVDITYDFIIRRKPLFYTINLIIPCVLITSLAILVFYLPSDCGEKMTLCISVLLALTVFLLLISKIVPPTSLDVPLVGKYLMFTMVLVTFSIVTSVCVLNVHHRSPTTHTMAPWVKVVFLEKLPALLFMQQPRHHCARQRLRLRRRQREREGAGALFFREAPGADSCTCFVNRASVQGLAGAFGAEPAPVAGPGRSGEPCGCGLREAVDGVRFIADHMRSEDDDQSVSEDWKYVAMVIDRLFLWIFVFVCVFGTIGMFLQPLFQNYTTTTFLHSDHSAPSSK
Sequence (P43681 whole entry): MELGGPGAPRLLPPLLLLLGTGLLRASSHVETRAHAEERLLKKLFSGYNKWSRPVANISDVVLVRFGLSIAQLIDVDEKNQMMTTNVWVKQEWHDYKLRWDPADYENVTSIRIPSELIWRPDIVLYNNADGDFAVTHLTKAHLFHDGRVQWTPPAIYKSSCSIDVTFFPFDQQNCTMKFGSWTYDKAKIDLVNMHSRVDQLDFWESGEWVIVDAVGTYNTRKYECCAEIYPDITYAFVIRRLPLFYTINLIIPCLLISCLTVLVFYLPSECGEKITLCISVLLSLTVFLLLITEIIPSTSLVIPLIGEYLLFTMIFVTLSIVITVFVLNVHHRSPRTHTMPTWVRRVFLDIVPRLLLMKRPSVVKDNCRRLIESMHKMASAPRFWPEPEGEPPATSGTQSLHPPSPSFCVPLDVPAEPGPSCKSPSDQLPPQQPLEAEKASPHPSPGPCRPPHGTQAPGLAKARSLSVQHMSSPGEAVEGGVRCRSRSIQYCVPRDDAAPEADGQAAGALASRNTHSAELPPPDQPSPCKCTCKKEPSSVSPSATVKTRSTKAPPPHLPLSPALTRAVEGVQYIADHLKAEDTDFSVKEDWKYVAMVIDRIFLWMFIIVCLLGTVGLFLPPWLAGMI
Below, each of the compounds is paired with its reported Ki value.

Would you please look over these solved cases?
CN1CCCC1c1cc2cc(O)ccc2o1 (racemic) = > 100000 nM
CN1CCCC1c1cc2ccc(O)cc2o1 (racemic) = 172 nM
COc1ccc2oc(C3CCCN3C)cc2c1 (racemic) = 181000 nM
CN1CCCC1c1cc2ccccc2o1 (racemic) = 718 nM
COc1ccc2cc(C3CCCN3C)oc2c1 (racemic) = > 100000 nM

Now, please, on to the next compound.
Return Ki measured with Neuronal acetylcholine receptor; alpha4/beta2 (Homo sapiens, UniProt P17787+P43681) given this compound: CN1CCCC1c1coc2ccccc12 (racemic)
828 nM

Data provenance: ChEMBL document CHEMBL5143646
